Data origin: ChEMBL document CHEMBL4806968

# MEASURED ON: Tyrosine-protein kinase receptor UFO (Homo sapiens) (UniProt P30530)
# Sequence (P30530 whole entry): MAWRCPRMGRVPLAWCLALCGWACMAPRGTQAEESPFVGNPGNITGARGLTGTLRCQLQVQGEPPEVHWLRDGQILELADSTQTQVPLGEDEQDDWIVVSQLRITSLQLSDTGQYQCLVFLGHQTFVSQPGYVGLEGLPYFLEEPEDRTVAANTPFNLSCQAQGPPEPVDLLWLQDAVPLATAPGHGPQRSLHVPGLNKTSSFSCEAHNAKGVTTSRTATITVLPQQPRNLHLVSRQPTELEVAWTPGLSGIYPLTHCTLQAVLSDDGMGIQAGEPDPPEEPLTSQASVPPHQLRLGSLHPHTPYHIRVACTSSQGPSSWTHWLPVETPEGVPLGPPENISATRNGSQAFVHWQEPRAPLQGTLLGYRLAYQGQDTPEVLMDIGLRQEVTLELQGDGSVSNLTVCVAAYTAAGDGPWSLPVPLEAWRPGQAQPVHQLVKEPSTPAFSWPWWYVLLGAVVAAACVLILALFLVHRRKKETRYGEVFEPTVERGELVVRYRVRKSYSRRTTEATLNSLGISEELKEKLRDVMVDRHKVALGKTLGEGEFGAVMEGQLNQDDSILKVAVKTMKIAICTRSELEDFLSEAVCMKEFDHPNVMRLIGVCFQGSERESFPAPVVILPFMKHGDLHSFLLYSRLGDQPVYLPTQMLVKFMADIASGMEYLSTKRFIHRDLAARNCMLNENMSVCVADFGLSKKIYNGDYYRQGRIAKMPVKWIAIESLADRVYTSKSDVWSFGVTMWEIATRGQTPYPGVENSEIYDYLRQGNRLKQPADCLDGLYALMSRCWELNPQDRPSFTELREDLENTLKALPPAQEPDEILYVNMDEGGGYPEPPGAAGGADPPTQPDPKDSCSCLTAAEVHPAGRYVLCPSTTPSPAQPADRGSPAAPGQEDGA
# ASSAY SUMMARY: Inhibition of AXL (unknown origin) at 0.5 uM relative to control
Provide the recorded inhibition for the entries that follow.
Express the result in % but write the number alone.

# lookup: inhibition of `CNC(=O)c1cc(Oc2ccc(NC(=O)c3nc(C(F)(F)F)sc3-c3ccc(F)cc3)cc2)ccn1`
52

Do the same for `CNC(=O)c1cc(Oc2ccc(NC(=O)c3nc(SC)[nH]c3-c3ccc(F)cc3)cc2)ccn1` please
91

Do the same for `CNC(=O)c1cc(Oc2ccc(NC(=O)c3nc(S(C)(=O)=O)sc3-c3ccc(F)cc3)cc2)ccn1` please
83

Do the same for `CNC(=O)c1cc(Oc2ccc(NC(=O)c3nc(SC)n(CCN(C)C)c3-c3ccc(F)cc3)cc2)ccn1` please
64
